Below, each entry is listed with its recorded solubility.
Condition Summary: 25 °C
A bare number is not enough; add the unit after it.

1) CC=CC(O)CC (stereo unspecified) | 380 mM

Dear colleague, please send me the reported solubility for CCCCC(C)(C)O when you can. 83.5 mM

Dear colleague, please send me the reported solubility for CC(C)CCCO when you can. 73.4 mM

Dear colleague, please send me the reported solubility for C=CC(O)C(C)C (stereo unspecified) when you can. 305 mM

Dear colleague, please send me the reported solubility for CC(C)CCC(C)O (stereo unspecified) when you can. 41.9 mM

Dear colleague, please send me the reported solubility for CCCC(O)CCC when you can. 40.4 mM

Dear colleague, please send me the reported solubility for CC(C)(C)CCCO when you can. 28.5 mM

Dear colleague, please send me the reported solubility for CCCCCCCCCCO when you can. 0.234 mM

Dear colleague, please send me the reported solubility for CCC[C@](C)(O)CC when you can. 101 mM

Dear colleague, please send me the reported solubility for CCCCCCCCO when you can. 4.15 mM

Dear colleague, please send me the reported solubility for CC(C)C(C)O (stereo unspecified) when you can. 635 mM

---

Condition Summary: 28 °C
Measurement Name: solubility (mM)
Numeric only. Scale: mM

Dear colleague, please send me the reported solubility for CCCCC(C)(O)CC (stereo unspecified) when you can. 23.2

---

Condition Summary: 30 °C
Measurement Name: solubility (mM)
Numeric only. Scale: mM

Dear colleague, please send me the reported solubility for CCCCCC(C)(C)O when you can. 19.1
